# system.name: AcerOBP11m-Phe101 (Phe101Gly mutant) (Apis cerana, UniProt S5CRW7, F101G)
# Sequence (S5CRW7 1-142 F101G): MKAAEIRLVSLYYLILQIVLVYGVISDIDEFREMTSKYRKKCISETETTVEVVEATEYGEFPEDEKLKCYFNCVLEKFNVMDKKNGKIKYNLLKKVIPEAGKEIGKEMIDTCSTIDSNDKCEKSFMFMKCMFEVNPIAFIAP
# experimental.protocol: Fluorescence competitive binding assay with 1-NPN, mutant AcerOBP11m-Phe101
# recorded.conditions: AcerOBP11m-Phe101, Table S4, mean ± SE; read-out: [IC50]
Can you tell me IC50 for the items I'm about to list?
Answers are plain numbers, in µM.

# example entries with known answers
compound="CCCCCCO [n-hexanol]" quantity_unit=µM numeric_value=14.3
compound="C=CCc1ccc(OC)c(OC)c1 [4-Allylveratrole]" quantity_unit=µM numeric_value=20.1
compound="CC(C)=CCC/C(C)=C/CC/C(C)=C/CO [Farnesol]" quantity_unit=µM numeric_value=17.8
compound="CCCCCCCCCCCCCCCC(=O)OCC [Ethyl palmitate]" quantity_unit=µM numeric_value=20.3

Look up and report measured IC50 for this entry: CC(=O)OCCC(C)C [Isoamyl acetate]
10.7

----------
# system.name: AcerOBP11m-Ile97 (Ile97Gly mutant) (Apis cerana, UniProt S5CRW7, I97G)
# Sequence (S5CRW7 1-142 I97G): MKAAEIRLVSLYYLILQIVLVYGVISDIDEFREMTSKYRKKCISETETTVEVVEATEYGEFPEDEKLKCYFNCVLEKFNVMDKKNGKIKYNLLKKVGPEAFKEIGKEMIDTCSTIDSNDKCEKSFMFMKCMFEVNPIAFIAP
# experimental.protocol: Fluorescence competitive binding assay with 1-NPN, mutant AcerOBP11m-Ile97
# recorded.conditions: AcerOBP11m-Ile97, Table S4, mean ± SE; read-out: KD
assay.readout: Kd (µM)
One number for each entry, in µM.

# example entries with known answers
compound="CCCCCCO [n-hexanol]" system_name="AcerOBP11m-Ile97 (Ile97Gly mutant) (Apis cerana, UniProt S5CRW7, I97G)" numeric_value=10.1
compound="CC(C)=CCC/C(C)=C/CC/C(C)=C/CO [Farnesol]" system_name="AcerOBP11m-Ile97 (Ile97Gly mutant) (Apis cerana, UniProt S5CRW7, I97G)" numeric_value=5.24

List reported Kd for each of these compounds:
1. CC(=O)OCCC(C)C [Isoamyl acetate]
2. C=CCc1ccc(OC)c(OC)c1 [4-Allylveratrole]
3. CCCCCCCCCCCCCCCC(=O)OCC [Ethyl palmitate]

4.54
5.83
1.86

----------
Can you tell me pIC50 for the items I'm about to list?
# system.name: recombinant AcerOBP11 (Apis cerana, UniProt S5CRW7)
# experimental.protocol: biochemical
# Format: binding
# recorded.conditions: [IC50], AcerOBP11-wt, Table S4, mean ± SE
Give bare numbers, as −log10 of the molar value.

# example entries with known answers
compound="CCCCCCCCCCCCCCCC(=O)OCC [Ethyl palmitate]" numeric_value=4.61
compound="C=CCc1ccc(OC)c(OC)c1 [4-Allylveratrole]" numeric_value=4.68
compound="COC(=O)c1ccc(O)cc1 [HOB, methyl p-hydroxybenzoate]" numeric_value=5.08
compound="CC(=O)OCCC(C)C [Isoamyl acetate]" numeric_value=4.77

List reported pIC50 for each of these compounds:
1. CCCCCCO [n-hexanol]
2. CC(C)=CCC/C(C)=C/CC/C(C)=C/CO [Farnesol]

1. 4.68
2. 4.69

----------
# system.name: recombinant AcerOBP11 (Apis cerana)
# experimental.protocol: biochemical
# Format: binding
assay.readout: Kd (µM)
Numbers only, in µM.

# example entries with known answers
compound="C=CC(C)(O)CCC=C(C)C (centres unmarked)" numeric_value=9.53
compound=CCCCCCCCCCCCCC(=O)O numeric_value=7.71
compound=O=CCc1ccccc1 numeric_value=3.75
compound="CC1CCC(C(C)C)C(O)C1 (racemic)" numeric_value=4.34

// moving on: another record for Kd
Look up and report measured Kd for this entry: COC(=O)c1ccccc1O [Methyl salicylate]
6.83

----------
Can you tell me IC50 for the items I'm about to list?
# system.name: AcerOBP11m-Ile97 (Ile97Gly mutant) (Apis cerana, UniProt S5CRW7, I97G)
# experimental.protocol: Fluorescence competitive binding assay with 1-NPN, mutant AcerOBP11m-Ile97
# recorded.conditions: AcerOBP11m-Ile97, Table S4, mean ± SE; read-out: [IC50]
One number for each entry, in µM.

# example entries with known answers
molecule="CCCCCCCCCCCCCCCC(=O)OCC [Ethyl palmitate]" assay_readout=IC50 numeric_value=6.61
molecule=CCCCCCO assay_readout=IC50 numeric_value=33.4

List reported IC50 for each of these molecules:
1. CC(C)=CCC/C(C)=C/CC/C(C)=C/CO
2. CC(=O)OCCC(C)C [Isoamyl acetate]
3. C=CCc1ccc(OC)c(OC)c1

21.3
17.8
25.8

----------
# system.name: recombinant AcerOBP11 (Apis cerana)
# experimental.protocol: biochemical
# Format: binding
# recorded.conditions: read-out: KD
# Procedure: The interactions were monitored by recording 1-NPN fluorescence upon addition of 1-NPN aliquots with excitation wavelength of 337 nm, and emission wavelength of 350–450 nm, where the slit was 5 nm. […] The fluorescence intensities at the maximum of emission wavelength (400~410 nm) were recorded to calculate Scatchard plots. The dissociation constant of the protein/1-NPN complex (K1−NPN) was calculated from Scatchard plots and applied in the equation below to estimate ligand binding affinity. […]
pKd: −log10 of the molar value.
assay.readout: pKd

Determine reported pKd for CC(=O)CCCCC/C=C/C(=O)O [9-ODA, (E)-9-oxo-2-decanoic acid] ; test system: recombinant AcerOBP11 (Apis cerana).
> 5.00

----------
# system.name: recombinant AcerOBP11 (Apis cerana)
# experimental.protocol: biochemical
# Type: binding
assay.readout: IC50 (µM)
Numbers only, in µM.

# example entries with known answers
molecule="CC12CCC(CC1)C(C)(C)O2 [1,8-Cineole]" quantity_unit=µM numeric_value=21.1
molecule="O=CCc1ccccc1 [Phenylacetaldehyde]" quantity_unit=µM numeric_value=21.6
molecule="CC1CCC(C(C)C)C(O)C1 (racemic) [DL-Menthol]" quantity_unit=µM numeric_value=26.2
molecule="C=CC(C)(O)CCC=C(C)C (stereo not drawn) [Linalool]" quantity_unit=µM numeric_value=55
molecule="COC(=O)c1ccccc1O [Methyl salicylate]" quantity_unit=µM numeric_value=40

// moving on: another record for IC50
Look up and report measured IC50 for this entry: CCCCCCCCCCCCCC(=O)O [Myristic acid]
45.2

----------
# system.name: AcerOBP11m-Ile140 (Ile140Gly mutant) (Apis cerana, UniProt S5CRW7, I140G)
# experimental.protocol: Fluorescence competitive binding assay with 1-NPN, mutant AcerOBP11m-Ile140
assay.readout: Kd (nM)
Give bare numbers, in nM.

Look up and report measured Kd for this entry: COC(=O)c1ccc(O)cc1 [HOB, methyl p-hydroxybenzoate]
1910

----------
# system.name: recombinant AcerOBP11 (Apis cerana, UniProt S5CRW7)
# experimental.protocol: biochemical
# Format: binding
# recorded.conditions: KD, AcerOBP11-wt, Table S4, mean ± SE
assay.readout: Kd (µM)
Answers are plain numbers, in µM.

molecule=CCCCCCO quantity_unit=µM numeric_value=2.79

// moving on: another record for Kd
Look up and report measured Kd for this entry: CCCCCCCCCCCCCCCC(=O)OCC [Ethyl palmitate]
3.79

----------
# system.name: AcerOBP11m-Phe101 (Phe101Gly mutant) (Apis cerana, UniProt S5CRW7, F101G)
# Sequence (S5CRW7 1-142 F101G): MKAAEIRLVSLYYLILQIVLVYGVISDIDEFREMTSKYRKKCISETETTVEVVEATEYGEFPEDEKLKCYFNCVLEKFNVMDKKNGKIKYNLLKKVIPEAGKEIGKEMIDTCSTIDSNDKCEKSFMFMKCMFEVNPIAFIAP
# experimental.protocol: Fluorescence competitive binding assay with 1-NPN, mutant AcerOBP11m-Phe101
assay.readout: pKd
Answers are plain numbers, as −log10 of the molar value.

Determine reported pKd for COC(=O)c1ccc(O)cc1 [HOB, methyl p-hydroxybenzoate] ; test system: AcerOBP11m-Phe101 (Phe101Gly mutant) (Apis cerana, UniProt S5CRW7, F101G).
5.84

----------
# system.name: recombinant AcerOBP11 (Apis cerana)
# experimental.protocol: biochemical
# Format: binding
# recorded.conditions: [IC50], displacement of 1-NPN, 1 μmol/L protein in PBS, 25°C; Table 1
Can you tell me pIC50 for the items I'm about to list?
Give bare numbers, as −log10 of the molar value.

# example entries with known answers
compound=CC(C)=CCC/C(C)=C/CC/C(C)=C/CO assay_readout=pIC50 numeric_value=4.49
compound=C=CCc1ccc(OC)c(OC)c1 assay_readout=pIC50 numeric_value=4.77
compound=CC(=O)/C=C/C1=C(C)CCCC1(C)C assay_readout=pIC50 numeric_value=4.67

List reported pIC50 for each of these compounds:
1. CC(C)=CCC/C(C)=C/CO
2. COC(=O)c1ccc(O)cc1 [HOB, methyl p-hydroxybenzoate]
3. CCCCCCCCCCCCCCCC(=O)OCC [Ethyl palmitate]
4. CC(=O)OCCC(C)C [Isoamyl acetate]
5. CC(C)=CCC/C(C)=C\CO

1. 4.40
2. 5.08
3. 4.71
4. 4.62
5. 4.47
